Data provenance is the supplement of paper PMC13380429.

Below, each entry is listed alongside its reported cell viability.
Test system: Calu-3
assay-comment: cell viability relative to DMSO; higher = less toxic
condition-notes: 72 h; 10 nM

# compound, target, cell viability / %
records = [
    ("O=C(c1ccc(OCCCc2c[nH]cn2)cc1)C1CC1", "Calu-3", 101),
    ("Cc1cc2nc3c(=O)[nH]c(=O)nc-3n(C)c2cc1C=O", "Calu-3", 103),
    ("OCc1cncc(F)c1", "Calu-3", 97.2),
    ("CN[C@@H](C)C(=O)N[C@H](C(=O)N1CCC[C@H]1C(=O)N[C@H]1c2ccccc2C[C@H]1OCC#CC#CCO[C@@H]1Cc2ccccc2[C@@H]1NC(=O)[C@@H]1CCCN1C(=O)[C@@H](NC(=O)[C@H](C)NC)C1CCCCC1)C1CCCCC1", "Calu-3", 99.8),
    ("CCC1(C)CC(=O)NC1=O (configuration not stated) [ethosuximide]", "Calu-3", 93.6),
    ("Cc1ccc(C(=O)C(C)CN2CCCCC2)cc1 (configuration not stated)", "Calu-3", 93.2),
    ("C=CC1=C(C)C2=CC3=NC(=C(CC(=O)O)C4=NC(=C(C)C4=C(O)O)C=c4[nH]c(c(C)c4CC)=CC1=N2)C(CCC(=O)O)C3C (configuration not stated)", "Calu-3", 89.7),
    ("COC(=O)C1=C(C)NC(C)=C(C(=O)O[C@H]2CCN(Cc3ccccc3)C2)[C@H]1c1cccc([N+](=O)[O-])c1", "Calu-3", 99.4),
    ("CCn1cc(C(=O)O)c(=O)c2cc(F)c(N3CCNC(C)C3)c(F)c21 (configuration not stated)", "Calu-3", 96.8),
    ("CC(=O)Oc1cc(C(F)(F)F)ccc1C(=O)O", "Calu-3", 97.9),
    ("c1ccc(CC2=NCCN2)cc1", "Calu-3", 103),
    ("COc1ccccc1C(=O)Nc1cccc(NC(=O)c2cccc(C)c2)c1", "Calu-3", 98.4),
    ("CC1(C)OC(=O)NC1=O", "Calu-3", 107),
    ("C[C@]12CC[C@H]3[C@@H](CCC4=CC(=O)CC[C@@H]43)[C@@H]1CC[C@@H]2O", "Calu-3", 102),
    ("CC(=O)O[C@]1(C(C)=O)CC[C@H]2[C@@H]3CCC4=CC(=O)CC[C@]4(C)[C@H]3CC[C@@]21C [hydroxyprogesterone-acetate]", "Calu-3", 115),
    ("CN(C(=O)c1c(O)c2ccccc2n(C)c1=O)c1ccccc1", "Calu-3", 96.1),
    ("CCOC(=O)C1=CCCC[C@H]1S(=O)(=O)Nc1ccc(F)cc1Cl", "Calu-3", 104),
    ("CN(C(=O)CN(CCO)CC(=O)N(C)C(C)(C)Cc1ccccc1)C(C)(C)Cc1ccccc1", "Calu-3", 101),
    ("CCC(NC(C)C)C(O)c1ccc(O)c(O)c1 (configuration not stated)", "Calu-3", 98.9),
    ("Cc1cc(C)c(NC(=O)C2CC3CCC2C3)c(C)c1 (configuration not stated)", "Calu-3", 96.5),
    ("CCCCc1nc2cc(/C=C/C(=O)NO)ccc2n1CCN(CC)CC", "Calu-3", 89.6),
    ("N=C(N)c1ccc(/C=C/c2ccc(C(=N)N)cc2O)cc1 [hydroxystilbamidine]", "Calu-3", 107),
]
